Biological target: MYT1 protein (Homo sapiens (Human))
Sequence (Q99640 whole entry): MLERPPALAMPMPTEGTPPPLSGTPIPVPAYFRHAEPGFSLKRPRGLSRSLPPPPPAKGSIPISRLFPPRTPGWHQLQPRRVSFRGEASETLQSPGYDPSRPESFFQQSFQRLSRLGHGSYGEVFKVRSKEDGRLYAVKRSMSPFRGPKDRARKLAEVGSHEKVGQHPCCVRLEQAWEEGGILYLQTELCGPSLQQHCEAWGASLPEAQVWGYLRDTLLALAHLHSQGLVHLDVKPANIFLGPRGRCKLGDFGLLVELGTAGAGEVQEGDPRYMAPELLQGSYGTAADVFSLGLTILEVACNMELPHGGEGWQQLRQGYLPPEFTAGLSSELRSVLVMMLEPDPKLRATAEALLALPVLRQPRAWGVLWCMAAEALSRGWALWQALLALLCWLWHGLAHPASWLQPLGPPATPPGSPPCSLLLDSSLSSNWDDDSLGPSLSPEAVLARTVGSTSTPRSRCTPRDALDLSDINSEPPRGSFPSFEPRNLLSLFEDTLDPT
Assay: Test for binding to ATP binding site of MYT1 (Kinase Tracer 178 / Eu-Anti-GST antibody TR-FRET)
Details: ATP binding site of MYT1, 30 minutes at room temperature
Returns: string. Value is satisfied if measured IC50 is below 2 nM, and not satisfied if it is greater than or equal to it.

Field: example entries. Status: answers known.
>>> print(df.to_string())
                               smiles_input    class_label
0  CC(C)Oc1cc2c(-c3cc(F)c(Cl)c4[nH]ncc34)c(N)c(=O)[nH]c2c2cccnc12      satisfied
1  N#C[C@H]1C[C@H](Oc2cc3c(-c4cc(F)c(F)c5[nH]ncc45)c(N)c(=O)[nH]c3c3cccnc23)C1      satisfied
2  COCC(F)(F)COc1cc2c(-c3ccc(F)c4[nH]ncc34)c(N)c(=O)[nH]c2c2cccnc12  not satisfied
3  CC(C)N1CC(c2cc3c(-c4ccc(F)c5[nH]ncc45)c(N)c(=O)[nH]c3c3ncccc23)C1  not satisfied
4  Cc1ccc2c(ccc3c(-c4ccc(F)c5[nH]ncc45)c(N)c(=O)[nH]c32)n1  not satisfied
5  Nc1c(-c2ccc(Cl)c3[nH]ncc23)c2cc(C3CCN(C4CCC4)CC3)ccc2[nH]c1=O  not satisfied

We now examine a further molecule.
Does the reported IC50 of the following molecule sit strictly below 2 nM? "Nc1c(-c2ccc(F)c3[nH]ncc23)c2cc(N3CCN4CCOC[C@@H]4C3)c3cccnc3c2[nH]c1=O"
not satisfied
